Target or test system: Recombinant human c-KIT kinase (Homo sapiens (Human))
Sequence (P10721 26-976): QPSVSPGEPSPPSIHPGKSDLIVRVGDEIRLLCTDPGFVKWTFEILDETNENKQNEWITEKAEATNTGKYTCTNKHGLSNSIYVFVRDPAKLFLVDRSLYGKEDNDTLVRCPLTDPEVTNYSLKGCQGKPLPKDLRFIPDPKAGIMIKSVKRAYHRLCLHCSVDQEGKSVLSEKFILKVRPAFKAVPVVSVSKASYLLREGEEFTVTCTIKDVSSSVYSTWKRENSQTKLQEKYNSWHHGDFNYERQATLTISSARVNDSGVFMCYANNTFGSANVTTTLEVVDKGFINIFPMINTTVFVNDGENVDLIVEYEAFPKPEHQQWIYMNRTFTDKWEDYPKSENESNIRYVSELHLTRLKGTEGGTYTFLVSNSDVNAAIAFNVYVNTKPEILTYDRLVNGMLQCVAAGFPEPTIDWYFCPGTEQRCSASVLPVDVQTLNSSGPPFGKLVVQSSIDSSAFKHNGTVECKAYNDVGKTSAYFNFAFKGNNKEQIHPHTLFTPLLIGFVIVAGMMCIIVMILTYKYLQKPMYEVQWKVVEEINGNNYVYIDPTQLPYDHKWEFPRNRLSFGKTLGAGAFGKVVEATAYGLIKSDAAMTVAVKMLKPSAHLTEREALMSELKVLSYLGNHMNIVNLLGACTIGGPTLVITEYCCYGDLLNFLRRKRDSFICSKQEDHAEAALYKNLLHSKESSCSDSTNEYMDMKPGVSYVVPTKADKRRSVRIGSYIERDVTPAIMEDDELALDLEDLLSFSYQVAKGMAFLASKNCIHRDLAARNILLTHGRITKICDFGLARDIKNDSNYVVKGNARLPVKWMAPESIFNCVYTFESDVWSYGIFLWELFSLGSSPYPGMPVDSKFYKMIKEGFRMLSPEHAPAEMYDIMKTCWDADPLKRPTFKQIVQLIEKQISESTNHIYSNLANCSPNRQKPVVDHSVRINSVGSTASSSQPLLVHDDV
Test method notes: c-KIT kinase chemiluminescence assay (ADP-Glo)
Assay type: biochemical
Settings: ATP 50 μM
Provide the recorded IC50 for the entries that follow.

[in] Which measured IC50 value corresponds to COC(=O)Nc1ccc(-c2ncc(C(=O)Nc3cc(-c4noc([C@H]5C[C@@H]5F)n4)ccc3C)o2)cc1 [Example 308-48] ?
[out] 100 to 1000 nM

[in] Same question for Cc1ccc(-c2noc([C@H]3C[C@@H](OC(F)(F)F)C3)n2)cc1NC(=O)c1cnn2cc(-c3cn(C(F)F)nn3)ccc12 [Example 263] please.
[out] < 100 nM

[in] Same question for Cc1ccc(-c2noc([C@H]3C[C@@H](OC(F)F)C3)n2)cc1NC(=O)c1cnn2ccc(N3CC4(COC4)C3)cc12 [Example 242] please.
[out] < 100 nM

[in] Same question for Cc1sc(-c2noc(C3CN(C(=O)C4(F)CC4)C3)n2)cc1NC(=O)c1cnn2ccc(N3CC4(COC4)C3)cc12 [Example 281-128] please.
[out] 100 to 1000 nM

[in] Same question for CC(=O)N1CCN(c2ccn3ncc(C(=O)Nc4cc(-c5noc([C@H]6C[C@@H]6F)n5)ccc4C)c3c2)CC1 [Example 241-6] please.
[out] < 100 nM

[in] Same question for Cc1ccc(-c2noc([C@H]3C[C@@H]3F)n2)cc1NC(=O)c1cnn2ccc(-c3c(C)nc(N)nc3C)cc12 [Example 171-6] please.
[out] 100 to 1000 nM

[in] Same question for Cc1ccc(-c2noc([C@H]3C[C@@H]3F)n2)cc1NC(=O)c1cnn2ccc(N3CC4(CNC4)C3)cc12 [Example 211] please.
[out] < 100 nM

[in] Same question for Cc1ccc(-c2noc(N3CC(F)(F)C3)n2)cc1NC(=O)c1cnn2ccc(N3CC4(C3)CC(O)(C(F)F)C4)cc12 [Example 281-98] please.
[out] < 100 nM

[in] Same question for O=C(Nc1cc(-c2noc([C@H]3C[C@@H]3F)n2)ccc1C(F)F)c1cnn2ccc(N3CC4(COC4)C3)cc12 [Example 281-116] please.
[out] 100 to 1000 nM

[in] Same question for Cc1ccc(-c2noc([C@H]3C[C@@H]3F)n2)cc1NC(=O)c1cnn2ccc(CO)cc12 [Example 72] please.
[out] < 100 nM

[in] Same question for Cc1ccc(-c2noc([C@H]3C[C@@H]3F)n2)cc1NC(=O)c1cn2ncsc2n1 [Example 97] please.
[out] > 1000 nM

[in] Same question for Cc1ccc(-c2noc([C@H]3C[C@@H]3F)n2)cc1NC(=O)c1cnc(-c2ccc3c(c2)C(C)C(=O)N3)o1 (some centres unmarked) [Example 308-61] please.
[out] 100 to 1000 nM

[in] Same question for Cc1ccc(-c2noc([C@H]3C[C@@H]3F)n2)cc1NC(=O)c1cnc2ncccn12 [Example 25] please.
[out] > 1000 nM

[in] Same question for Cc1ccc(-c2noc([C@H]3C[C@@H]3F)n2)cc1NC(=O)c1cnc2[nH]cnc2c1 [Example 66] please.
[out] > 1000 nM
